Test: Oral bioavailability in rat
Format: ADME, organism-based
Details: in vivo
PROPERTY LABEL: bioavailability (%)
# output: bare number, implied unit %

Value lookup for bioavailability; key = C[C@@H](O[C@H]1CN2C(=O)[C@H]3C[C@@](C)(O)C[C@H]3[C@H]2[C@@H]1c1ccc(F)cc1)c1cc(C(F)(F)F)cc(C(F)(F)F)c1
88.8

----------
Experiment: Half life in dog
Format: ADME, organism-based, Canis lupus familiaris
Details: in vivo
PROPERTY LABEL: half-life (h)
Expressed in h, but write only the number.

Quick check: half-life of C[C@@H](O[C@H]1CN2C(=O)[C@H]3C[C@@](C)(O)C[C@H]3[C@H]2[C@@H]1c1ccc(F)cc1)c1cc(C(F)(F)F)cc(C(F)(F)F)c1 ?
58

----------
// values below are reported Activity
Biological target: UniProt:P25103
Sequence (P25103 whole entry): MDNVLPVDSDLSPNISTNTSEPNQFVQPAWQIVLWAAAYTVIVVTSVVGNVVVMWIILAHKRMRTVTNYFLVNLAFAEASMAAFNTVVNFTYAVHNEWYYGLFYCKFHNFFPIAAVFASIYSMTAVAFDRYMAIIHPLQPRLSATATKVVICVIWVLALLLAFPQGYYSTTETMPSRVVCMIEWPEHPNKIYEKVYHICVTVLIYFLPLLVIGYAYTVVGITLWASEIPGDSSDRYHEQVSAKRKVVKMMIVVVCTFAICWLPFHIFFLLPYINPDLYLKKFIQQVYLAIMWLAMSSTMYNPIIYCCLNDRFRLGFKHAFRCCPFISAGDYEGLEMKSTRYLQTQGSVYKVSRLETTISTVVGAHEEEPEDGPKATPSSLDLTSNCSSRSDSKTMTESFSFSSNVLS
Assay: Antagonist activity at human recombinant NK1 receptor expressed in CHO cells assessed as remaining substance P level at 100 nM after 30 mins by [H3]-inositol phosphate release assay
Format: functional, cell-based

These recorded examples may help you get a feel for the data.
{"COMPOUND": "C[C@@H](O[C@H]1CN2C(=O)[C@H]3C[C@@H](O)C[C@H]3[C@H]2[C@@H]1c1ccc(F)cc1)c1cc(C(F)(F)F)cc(C(F)(F)F)c1", "ENDPOINT VALUE": "3%"}
{"COMPOUND": "C[C@@H](O[C@H]1CN2C(=O)C(N)C[C@H]2[C@@H]1c1ccc(F)cc1)c1cc(C(F)(F)F)cc(C(F)(F)F)c1 (stereo not given in full)", "ENDPOINT VALUE": "59%"}
{"COMPOUND": "C[C@@H](O[C@H]1CN2C(=O)[C@@H]3C[C@H](NCc4ccccc4)C[C@@H]3[C@H]2[C@@H]1c1ccc(F)cc1)c1cc(C(F)(F)F)cc(C(F)(F)F)c1", "ENDPOINT VALUE": "94%"}
{"COMPOUND": "CC[C@]1(O)C[C@H]2[C@H]3[C@H](c4ccc(F)cc4)[C@@H](O[C@H](C)c4cc(C(F)(F)F)cc(C(F)(F)F)c4)CN3C(=O)[C@H]2C1", "ENDPOINT VALUE": "4%"}
{"COMPOUND": "C[C@@H](O[C@H]1CN2C(=O)[C@H]3C[C@@H](NCc4ccccc4)C[C@H]3[C@H]2[C@@H]1c1ccc(F)cc1)c1cc(C(F)(F)F)cc(C(F)(F)F)c1", "ENDPOINT VALUE": "2%"}

Which Activity is listed for C[C@@H](O[C@H]1CN2C(=O)[C@H]3C[C@H](O)C[C@H]3[C@H]2[C@@H]1c1ccc(F)cc1)c1cc(C(F)(F)F)cc(C(F)(F)F)c1 ?
35%

Looking for the measured Activity of C[C@@H](O[C@H]1CN2C(=O)[C@H]3C[C@@H](N)C[C@H]3[C@H]2[C@@H]1c1ccc(F)cc1)c1cc(C(F)(F)F)cc(C(F)(F)F)c1 , can you help?
6%

----------
Assay: Plasma clearance in rat
Assay type: ADME, organism-based
PROPERTY LABEL: clearance
State the result as a value with its unit after it.

# clearance lookup, item C[C@@H](O[C@H]1CN2C(=O)[C@H]3C[C@@](C)(O)C[C@H]3[C@H]2[C@@H]1c1ccc(F)cc1)c1cc(C(F)(F)F)cc(C(F)(F)F)c1
3.24 mL/min/kg

// data source = ChEMBL document CHEMBL1255526
